Data origin: PubChem BioAssay (NCI)

TGI reference
system: SW-620 colon; assay: NCI tumour cell line growth inhibition, 48 h

Previously resolved entries follow.
> print(dat)
                                   molecule  recorded.measurement
1  C=C(C)C1CC/C(C)=C/CCC2(C)OC2CC/C(CO)=C\C1O (centres undefined)              > 100 µM
2     Cc1cccc(-c2[nH]ncc2-c2ccc3ncccc3n2)n1               > 25 µM
3  Cn1c2ccccc2n2c3ncccc3c(=NCCCC(=O)O)c(C#N)c12              > 100 µM

# evaluate next
Recorded TGI for Oc1ccc([Te]CCNCC[Te]c2ccc(O)cc2)cc1 on SW-620 colon was > 100 µM

---

test system: DU-145 prostate; assay: NCI tumour cell line growth inhibition, 48 h
OBSERVABLE: TGI

Previously resolved entries follow.
COMPOUND	TGI
CC[C@H](NC(=O)[C@H]1CCCCN1C)C(=O)N(C)[C@H](C[C@@H](OC(C)=O)c1nc(C(=O)N[C@@H](Cc2ccccc2)C[C@H](C)C(=O)O)cs1)C(C)C	> 4.64 µM
CCN1CCCC(C#N)(c2ccccc2)CC1 (configuration not stated)	> 100 µM
Nc1nc2c(ncn2C2CCC(CO)O2)c(=O)n1C(=O)c1ccccc1 (configuration not stated)	> 100 µM
CCCC(=O)NC(Nc1cc(C)ccn1)(C(=O)OCC)C(F)(F)F (configuration not stated)	> 100 µM

Notebook: Cc1ccc(/C=N/n2c(Cc3ccccc3)n[nH]c2=O)cc1 , TGI read as > 100 µM

Notebook: CCN(CC)CCC(=O)c1ccc(Sc2ccc(F)cc2)cc1 , TGI read as 36.1 µM

Notebook: COc1cc2c(cc1C[C@H]1[C@@H]3C[C@H]4c5c(c6ccccc6n5C)C[C@@H]([C@@H]3CO[C@]1(C)OC(C)=O)N4C)c1c(n2C)C2C[C@H]3C(C(C)=O)=COC[C@H]3[C@H](C1)N2C , TGI read as > 25 µM

---

TGI reference
tested on: OVCAR-4 ovarian; test: NCI tumour cell line growth inhibition, 48 h

> print(dat)
                         compound.structure  observable  recorded.measurement
1   COc1cc(=O)c2c(O)c3c(O)oc(C)cc3c(OC)c2c1         TGI               27.9 µM
2     CN(C)c1ccc(/C=C/c2ccnc3c(O)cccc23)cc1         TGI              > 100 µM
3  O=C(CC(CC(=O)Oc1c(Br)cc(Br)cc1C(=O)O)C(=O)Oc1c(Br)cc(Br)cc1C(=O)O)Oc1c(Br)cc(Br)cc1C(=O)O         TGI              > 100 µM
4           CC(=O)Nc1ccccc1-c1nc2ccccc2nc1C         TGI              > 100 µM

# evaluate next
Notebook: CCCCNc1nc2ccccc2c2c1ncn2CC(C)C , TGI read as > 100 µM

---

tested on: OVCAR-8 ovarian; experiment: NCI tumour cell line growth inhibition, 48 h; in the data active = GI50 below about 0.43 µM; inactive = the rest
Answer with one of the outcomes active, inactive

> print(dat)
                                   compound  category.label
1  Cc1cc(Cl)cc2c(N=Nc3ccc(S(N)(=O)=O)cc3)c(O)[nH]c12        inactive
2  C=C(C)C(=O)O[C@H]1CC2=C[C@@H](C[C@@]3(C)O[C@@H]3[C@H]3OC(=O)C(=C)[C@@H]31)OC2=O          active
3  CCC(CC)c1nc(Nc2ccc(C(=O)OC)cc2)c2ccccc2n1        inactive
4  COC1=CC(c2ccc[nH]2)=N/C1=C\c1[nH]c(C)c(CC(=O)OCc2ccccc2)c1CCC(=O)OCc1ccccc1          active
5  C=C(C)[C@@H]1CC[C@]2(COCCC#N)CC[C@]3(C)[C@H](CC[C@@H]4[C@@](C)(CCCNCCC#N)[C@H](C(=C)C)CC[C@]43C)[C@@H]12        inactive

## Input Assay outcome for CCOC(=O)c1ccc(Nc2sc(C(=O)c3ccc(Br)cc3)c(N)c2C#N)cc1 : what was it?
## Output inactive

## Input Assay outcome for C=CCC(N[C@@H](CO)c1ccccc1)c1cn(Cc2ccccc2Cl)c(=O)n(Cc2ccccc2Cl)c1=O (stereo partly drawn) : what was it?
## Output inactive

## Input Assay outcome for CCN(CC)CCNc1ccc(C)c2sc3cc(Cl)ccc3c(=O)c12 : what was it?
## Output inactive

---

system: UACC-257 melanoma; test: NCI tumour cell line growth inhibition, 48 h
TGI reference

> print(dat)
                                   molecule  recorded.measurement
1  C=CCC(N[C@@H](CO)c1ccccc1)c1cn(Cc2ccccc2Cl)c(=O)n(Cc2ccccc2Cl)c1=O (some centres undefined)              > 100 µM
2  O=C1/C(=C\c2ccc(F)cc2)CN(C(=O)c2ccccc2)C/C1=C\c1ccc(F)cc1               8.52 µM
3  CCOP(=O)(OCC)C(C)(C)N(C)/C(F)=N/C(F)(F)F              > 100 µM

Notebook: CCCC(=O)Nc1cc(/C=C/C(=O)N2CC(CCl)c3c2cc(OCc2ccccc2)c2[nH]cc(C)c32)n(C)c1 (centres undefined) , TGI read as 0.868 µM

Notebook: OCc1cc2c(ccc3sc4ccc5sc6ccc7ncccc7c6c5c4c32)s1 , TGI read as 37.2 µM

Notebook: COc1ccccc1NC(=O)C1=C(C)NC(C)=C(C(=O)Nc2ccccc2OC)C1C1=CC=COC1 , TGI read as 68.3 µM

---

system: IGROV1 ovarian; test: NCI tumour cell line growth inhibition, 48 h
OBSERVABLE: GI50

Previously resolved entries follow.
> print(dat)
                                   compound  recorded.measurement
1  CCC(CC)c1nc(Nc2ccc(C(=O)OC)cc2)c2ccccc2n1               11.6 µM
2  Cc1ccc(NC(=O)c2ccc(CN3CCN(C)CC3)cc2)cc1Nc1nccc(-c2cccnc2)n1               20.5 µM
3       CC(C)(C)N1CCC1CN (stereo not drawn)              > 100 µM

Notebook: Cc1ccc(Cl)cc1Nc1nc(C(F)(F)F)ccc1C(=O)N/N=C/c1cccnc1 , GI50 read as 4.22 µM

Notebook: CCOC(=O)C1=C(C)N=c2s/c(=C\c3ccccc3O)c(=O)n2C1c1ccc(OC)c2ccccc12 (stereo not drawn) , GI50 read as 21.4 µM

---

test system: NCI/ADR-RES ovarian; test: NCI tumour cell line growth inhibition, 48 h; in the data active means GI50 below about 0.43 µM; inactive means the rest
Answer with one of the outcomes 1 = active, -1 = inactive

See these solved cases before continuing.
COMPOUND	CATEGORY LABEL
COC1C(CO)OC(n2c3ccccc3c3c4c(c5c6ccccc6[nH]c5c32)C(=O)NC4=O)C(O)C1O (stereo unspecified)	-1
CCOC(=O)[C@@H](C)C[C@H](Cc1ccccc1)NC(=O)c1nc([C@@H](C[C@H](C(C)C)N(C)C(=O)[C@@H](NC(=O)[C@H]2CCCCN2C)C(C)C)OC(C)=O)sc1CCOCc1ccccc1	-1
N#Cc1c(NC(=O)NCc2ccccc2)sc2c1CCCC2	1
Cc1ccc(Cl)cc1Nc1nc(C(F)(F)F)ccc1C(=O)N/N=C/c1cccnc1	-1

## Input Assay outcome for Nc1ccccc1NC(=O)c1ccc(CNc2nccc(-c3cccnc3)n2)cc1 : what was it?
## Output -1

## Input Assay outcome for Cn1cc(C2=C(c3ccccc3[N+](=O)[O-])C(=O)NC2=O)c2ccccc21 : what was it?
## Output -1

## Input Assay outcome for CC[C@H](NC(=O)[C@H]1CCCCN1C)C(=O)N(C)[C@H](C[C@@H](OC(C)=O)c1nc(C(=O)N[C@@H](Cc2ccccc2)C[C@H](C)C(=O)O)cs1)C(C)C : what was it?
## Output 1

## Input Assay outcome for CSc1ccc(-c2ccccc(=O)c2O)cc1 : what was it?
## Output 1

---

test system: SNB-78 CNS; experiment: NCI tumour cell line growth inhibition, 48 h
TGI reference

Previously resolved entries follow.
> print(dat)
                                   compound  recorded.measurement
1  CC(=O)Nc1ccc(/C=c2\sc3nnc(CCC(=O)Nc4ccccc4Cl)n3c2=O)cc1              > 100 µM
2           COc1cccc2ccc(C(=O)c3ccccc3)nc12              > 100 µM
3  Cc1[nH]c(=O)nc2c1C(NCCCN(C)C)c1cc(Cl)ccc1N2 (stereo not given)               33.2 µM
4               CC1=C(O)c2cn(C)cc2C(=O)C1=O              > 100 µM

# evaluate next
Notebook: O=C(CC(CC(=O)Oc1c(Br)cc(Br)cc1C(=O)O)C(=O)Oc1c(Br)cc(Br)cc1C(=O)O)Oc1c(Br)cc(Br)cc1C(=O)O , TGI read as > 100 µM
